B1: Twister Ribozyme (parent)
chain: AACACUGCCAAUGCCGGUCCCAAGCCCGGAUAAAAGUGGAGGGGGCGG

Variants of: B1
method: self-cleavage, relative activity (ratio to wild type); higher = more cleavage; co-transcriptional
Outcome: Yes for self-cleavage of at least 0.5; No for anything lower.

A2U C26G :: No
G17U G36A :: No
G43C G44A :: No
G16U U18A :: Yes
A2C C15G :: No
G28U U31C :: Yes

Next variant, please.
Determine whether measured self-cleavage meets or exceeds 0.5 for G29U A32U Yes
